# System: Bacillus cereus
# assay-remarks: Antimicrobial activity against Bacillus cereus ATCC 11778 by broth dilution method
# Assay type: functional
# Lookup of reported MIC keyed by entry
quantity-kind: MIC (µg/mL)

1) O=C(O)c1cn(C2CC2)c2sc3c4ccc(F)cc4[nH]c3c2c1=O :: 0.007
2) CO/N=C1\CN(c2nc3c(cc2F)c(=O)c(C(=O)O)cn3C2CC2)CC1CN (centres undefined) :: 0.07
3) Cc1ccc2c(c1)[nH]c1c2sc2c1c(=O)c(C(=O)O)cn2C1CC1 :: 0.3
4) O=C(O)c1cn(C2CC2)c2cc(N3CCNCC3)c(F)cc2c1=O :: 0.3
5) COc1ccc2c(c1)[nH]c1c2sc2c1c(=O)c(C(=O)O)cn2C1CC1 :: 0.03
6) C[C@H]1COc2c(N3CCN(C)CC3)c(F)cc3c(=O)c(C(=O)O)cn1c23.C[C@H]1COc2c(N3CCN(C)CC3)c(F)cc3c(=O)c(C(=O)O)cn1c23.O :: 0.15
7) O=C(O)c1cn(C2CC2)c2sc3c4ccccc4[nH]c3c2c1=O :: 0.007
8) COc1c(N2C[C@@H]3CCCN[C@@H]3C2)c(F)cc2c(=O)c(C(=O)O)cn(C3CC3)c12 :: 0.3
9) COc1c(C)cc2c([nH]c3c2sc2c3c(=O)c(C(=O)O)cn2C2CC2)c1C :: 3

----------
# Test system: Haemophilus influenzae
# assay-remarks: Antimicrobial activity against Haemophilus influenzae ATCC 19418 by broth dilution method
# Format: functional
# Lookup of reported MIC keyed by entry
quantity-kind: MIC (µg/mL)

1) COc1ccc2c(c1)[nH]c1c2sc2c1c(=O)c(C(=O)O)cn2C1CC1 :: 0.15
2) C[C@H]1COc2c(N3CCN(C)CC3)c(F)cc3c(=O)c(C(=O)O)cn1c23.C[C@H]1COc2c(N3CCN(C)CC3)c(F)cc3c(=O)c(C(=O)O)cn1c23.O :: 0.15
3) O=C(O)c1cn(C2CC2)c2sc3c4ccc(F)cc4[nH]c3c2c1=O :: 0.15
4) O=C(O)c1cn(C2CC2)c2sc3c4ccccc4[nH]c3c2c1=O :: 0.03

----------
# Lookup of reported IC50 keyed by entry
# assay-remarks: Inhibition of Escherichia coli topoisomerase 4 assessed as decatenation of kDNA after 30 mins by electrophoresis
quantity-kind: IC50 (µg/mL)

1. O=C(O)c1cn(C2CC2)c2cc(N3CCNCC3)c(F)cc2c1=O :: 4.6
2. COc1c(N2C[C@@H]3CCCN[C@@H]3C2)c(F)cc2c(=O)c(C(=O)O)cn(C3CC3)c12 :: 5

----------
# System: Staphylococcus aureus
# assay-remarks: Antimicrobial activity against Staphylococcus aureus ATCC 6538 by broth dilution method
# Format: functional
Checkbox rule: MIC lower than 0.07 µg/mL = Yes; MIC not lower than 0.07 µg/mL = No.

1. COc1c(N2C[C@@H]3CCCN[C@@H]3C2)c(F)cc2c(=O)c(C(=O)O)cn(C3CC3)c12 [MOXIFLOXACIN] :: Yes
2. O=C(O)c1cn(C2CC2)c2cc(N3CCNCC3)c(F)cc2c1=O [CIPROFLOXACIN] :: No
3. COc1c(C)cc2c([nH]c3c2sc2c3c(=O)c(C(=O)O)cn2C2CC2)c1C :: No
4. O=C(O)c1cn(C2CC2)c2sc3c4ccc(F)cc4[nH]c3c2c1=O :: Yes
